- Measured on: Human C5 (Homo sapiens, UniProt P01031)
- Construct: purchased Complement Technology
- Sequence (P01031 19-1676): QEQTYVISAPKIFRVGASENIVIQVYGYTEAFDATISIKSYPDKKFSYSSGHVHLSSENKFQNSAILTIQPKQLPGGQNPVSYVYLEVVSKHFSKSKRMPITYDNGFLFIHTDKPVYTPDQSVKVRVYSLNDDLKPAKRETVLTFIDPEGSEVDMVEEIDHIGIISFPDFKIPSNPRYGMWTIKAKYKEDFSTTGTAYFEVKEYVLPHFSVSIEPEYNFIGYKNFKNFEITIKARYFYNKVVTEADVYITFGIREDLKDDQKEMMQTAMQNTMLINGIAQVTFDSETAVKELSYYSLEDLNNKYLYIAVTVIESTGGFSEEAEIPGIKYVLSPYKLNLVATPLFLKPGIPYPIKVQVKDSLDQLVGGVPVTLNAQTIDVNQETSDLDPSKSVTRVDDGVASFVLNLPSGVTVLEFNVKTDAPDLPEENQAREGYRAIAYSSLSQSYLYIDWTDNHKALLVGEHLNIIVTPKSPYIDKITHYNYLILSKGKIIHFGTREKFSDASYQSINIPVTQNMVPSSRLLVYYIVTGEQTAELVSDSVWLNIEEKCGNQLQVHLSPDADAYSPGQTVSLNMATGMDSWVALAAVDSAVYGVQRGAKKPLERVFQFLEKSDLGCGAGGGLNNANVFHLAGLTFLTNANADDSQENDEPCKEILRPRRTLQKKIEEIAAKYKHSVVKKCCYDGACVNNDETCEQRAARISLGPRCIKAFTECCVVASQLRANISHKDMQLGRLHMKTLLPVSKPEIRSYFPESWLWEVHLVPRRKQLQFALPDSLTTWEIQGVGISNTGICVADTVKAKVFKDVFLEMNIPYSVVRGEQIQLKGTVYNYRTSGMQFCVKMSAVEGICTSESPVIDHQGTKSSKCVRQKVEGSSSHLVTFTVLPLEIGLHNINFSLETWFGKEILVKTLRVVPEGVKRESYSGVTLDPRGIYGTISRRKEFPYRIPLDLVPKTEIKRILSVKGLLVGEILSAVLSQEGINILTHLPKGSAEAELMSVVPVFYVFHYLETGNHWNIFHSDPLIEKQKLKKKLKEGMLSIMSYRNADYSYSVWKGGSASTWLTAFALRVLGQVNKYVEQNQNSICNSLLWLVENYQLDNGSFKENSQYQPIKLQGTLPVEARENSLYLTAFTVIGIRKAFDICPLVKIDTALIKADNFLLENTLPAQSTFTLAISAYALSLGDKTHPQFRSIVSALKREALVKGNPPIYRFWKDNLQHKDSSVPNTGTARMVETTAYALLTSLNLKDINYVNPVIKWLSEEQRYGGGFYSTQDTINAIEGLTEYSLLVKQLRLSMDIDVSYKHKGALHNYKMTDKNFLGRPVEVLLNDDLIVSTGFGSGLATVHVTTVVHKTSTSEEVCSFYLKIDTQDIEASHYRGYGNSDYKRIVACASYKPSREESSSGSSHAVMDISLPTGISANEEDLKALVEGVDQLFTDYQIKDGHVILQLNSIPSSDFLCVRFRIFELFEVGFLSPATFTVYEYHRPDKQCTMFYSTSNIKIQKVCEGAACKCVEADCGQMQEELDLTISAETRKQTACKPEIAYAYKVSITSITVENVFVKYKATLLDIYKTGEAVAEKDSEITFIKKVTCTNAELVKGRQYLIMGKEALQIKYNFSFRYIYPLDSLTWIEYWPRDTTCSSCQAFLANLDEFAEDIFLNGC
- Protocol summary: Red blood cell (RBC) hemolysis assay, luminescent (Example 28, Table 32)
- Format: cell-based
- Applied conditions: sheep EA cells, 1.5% C5-depleted human serum, 0.5 nM human C5, 1 hour at 37° C., luminescence (Table 32)
Quantity name: pIC50
Please note pIC50 is a logarithmic value: minus log10 of concentration in mol/L. Answer with that number alone.

Lookup result for CCCCCOc1cc(N2CC[C@H](C)N(Cc3ccc(CC(=O)N(C)C)cc3OC)C2=O)ccc1OC [SC0173] ; measured pIC50: 8.38

Lookup result for CCCCCOc1cc(N2CC[C@H](C)N(Cc3ccnc4[nH]ccc34)C2=O)ccc1OC [SC0219] ; measured pIC50: 7.40

Lookup result for COc1cc(CC(N)=O)ccc1CN1CC(C)CN(c2ccc(OC)c(OCCCC3CC3)c2)C1=O (centres unmarked) [SC0179] ; measured pIC50: 8.31

Lookup result for COc1cc(CC(=O)N2CCO[C@@H](CN(C)C)C2)ccc1CN1C(=O)N(c2ccc(OC)c(OCCCC3CC3)c2)CC[C@@H]1C [SC0146] ; measured pIC50: 8.68

Lookup result for CCCCCOc1cc(N2CC[C@@H](C)N(Cc3cccc4[nH]cc(Cl)c34)C2=O)ccc1OC [SC0167] ; measured pIC50: 8.49

Lookup result for CCCCCOc1cc(N2CC[C@H](C)N(Cc3ccnc4c3c(Cl)cn4CCOCCOC)C2=O)ccc1OC [SC0150] ; measured pIC50: 8.66

Lookup result for CCCCCOc1cc(N2C[C@@H](C(N)=O)CN(Cc3cc(F)ccc3OC)C2=O)ccc1OC [SC0213] ; measured pIC50: 7.74

Lookup result for COc1cc(CC(=O)N[C@H]2CN(C)C[C@H]2F)ccc1CN1C(=O)N(c2ccc(OC)c(OCCCC3CC3)c2)CC[C@@H]1C [SC0123] ; measured pIC50: 8.82

###

- Measured on: Human C5 (Homo sapiens, UniProt P01031)
- Construct: purchased Complement Technology
- Protocol summary: Surface plasmon resonance (SPR), immobilized human C5 (Example 9, Table 18)
- Assay type: binding
- Applied conditions: immobilized human C5, equilibrium dissociation constant; read-out: SPR C5 EQ KD
pKd: −log10 of the molar value.
Could you label it 1 if measured pKd is 7 or higher, and 0 otherwise?

### Prompt Please tell me: is the molecule COc1ccc(NC(=O)NCc2ccccc2OCCC2CCOC2)cc1OCCCC(C)C (stereo not shown) at or over 7 in terms of pKd?
### Response 0

### Prompt Please tell me: is the molecule COC(=O)c1cc(OC)c(OCCCC(C)C)cc1NC(=O)N[C@@H](CO)c1ccccc1 at or over 7 in terms of pKd?
### Response 0

### Prompt Please tell me: is the molecule COc1ccc(NC(=O)N[C@@H](CO)c2ccccc2)cc1OCCc1cccs1 at or over 7 in terms of pKd?
### Response 0

### Prompt Please tell me: is the molecule COc1ccc(NC(=O)N[C@@H](CO)c2ccccc2)cc1C(F)CCCC(C)C (stereo partly shown) at or over 7 in terms of pKd?
### Response 0

### Prompt Please tell me: is the molecule COc1ccc(CNC(=O)Nc2ccc(OC)c(OCCCC(C)C)c2)cn1 at or over 7 in terms of pKd?
### Response 0

### Prompt Please tell me: is the molecule COc1ccc(NC(=O)NCc2cccc3c2ccn3CCN2CCOCC2)cc1OCCCC(C)C at or over 7 in terms of pKd?
### Response 1

### Prompt Please tell me: is the molecule COc1ccc(NC(=O)NCc2ccnc3c2ccn3CC2CCCN2C)cc1OCCCC(C)C (stereo not shown) at or over 7 in terms of pKd?
### Response 1

### Prompt Please tell me: is the molecule COc1cc(CCCCN(C)C)c(NC(=O)N[C@@H](CO)c2ccccc2OC)cc1OCCCC(C)C at or over 7 in terms of pKd?
### Response 0

### Prompt Please tell me: is the molecule COc1ccc(NC(=O)NCc2ccc3c(N)n[nH]c3c2)cc1OCCCC(C)C at or over 7 in terms of pKd?
### Response 0

### Prompt Please tell me: is the molecule COc1ccc(NC(=O)NCc2cccc3c2ccn3CC2CCCN2C)cc1OCCCC(C)C (stereo not shown) at or over 7 in terms of pKd?
### Response 1

### Prompt Please tell me: is the molecule COc1ccc(NC(=O)NC(CO)c2cccc(CN)c2)cc1OCCCC(C)C (stereo not shown) at or over 7 in terms of pKd?
### Response 0

### Prompt Please tell me: is the molecule COc1ccc(CNC(=O)Nc2ccc(OC)c(OCCCC(C)C)c2)c(O)c1 at or over 7 in terms of pKd?
### Response 0

### Prompt Please tell me: is the molecule COc1ccc(NC(=O)N2CCc3ccc(O)cc3C2)cc1OCCCC(C)C at or over 7 in terms of pKd?
### Response 0
